tested on: rat red blood cells; assay: Determination of hemolytic activity; assay type: cell-based; conditions: rat red blood cells (5%), 1 h at 37°C, peptides 1-200 µM
Ends that are not written are not given here.
outcomeMeasure: Hemolytic activity

> print(dat)
                          substance   targetortestsystem  valueobserved
1     H-SILKKVLPKVMAHMK-NH2 [II/11]  rat red blood cells        »200 µM
2         H-GFLSILKKVLP-NH2 [II/12]  rat red blood cells        »200 µM
3    H-LSILKKVLPKVMAHMK-NH2 [II/10]  rat red blood cells        »200 µM
4      GFLSILKKVLKVMAHMK-NH2 [II/8]  rat red blood cells        22.9 µM
5   H-GFLSILKKVLPKVLAHLK-NH2 [II/5]  rat red blood cells        43.7 µM
6  H-GFLSILKKVGPKVMAHMK-NH2 [II/14]  rat red blood cells        »200 µM
7   H-GLSILKKVLKKVMAHMK-NH2 [II/17]  rat red blood cells        »200 µM
8   H-GFLSILKKVLAKVMAHMK-NH2 [II/2]  rat red blood cells        29.7 µM
